Values were extracted from patent US20140057857A1.

experimental target: GST-Mcl-1
Sequence (Q07820 whole entry): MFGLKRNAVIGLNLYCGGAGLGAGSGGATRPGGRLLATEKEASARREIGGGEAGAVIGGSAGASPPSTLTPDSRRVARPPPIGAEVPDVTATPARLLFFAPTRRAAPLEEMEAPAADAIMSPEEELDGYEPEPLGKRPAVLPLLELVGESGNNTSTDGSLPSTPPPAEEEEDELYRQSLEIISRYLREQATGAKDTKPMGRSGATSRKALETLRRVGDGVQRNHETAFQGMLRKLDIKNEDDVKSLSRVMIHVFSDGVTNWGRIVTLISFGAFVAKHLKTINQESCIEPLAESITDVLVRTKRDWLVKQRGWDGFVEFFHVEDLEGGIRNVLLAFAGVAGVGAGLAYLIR
experiment notes: fluorescence polarization assay, labeled peptide on GST-Mcl-1
measured parameter: pKd
Answers are plain numbers, as −log10 of the molar value.

• AAXLRRIGDXVNLRQKLLN (N-terminal FITC-Ahx; Cys 3 and Cys 10 cross-linked by Bph; C-terminal amide, also called Fl-5a; Fluo-5a) [Fluorescein-labeled cross-linked Noxa peptide 5a] = 9.10

Consider now this further binder.
Bench note: what pKd did AAXLRRIGDXVNLRQKLLN (N-terminal FITC-Ahx; D-cysteine at position 3; D-Cys 3 and L-Cys 10 cross-linked by Bph; C-terminal amide, also called Fl-6a; Fluo-6a) [Fluorescein-labeled cross-linked Noxa peptide 6a] show?
9.15
